tested on: thrombin-induced platelet aggregation, Human PRP; assay: Thrombin-induced platelet aggregation in human PRP (lumi-aggregometer); type: cell-based; conditions: thrombin 0.6-0.8 U/ml, 25 μM;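 further: aggregation recorded for 5 min after thrombin addition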
metric: Degree of platelet aggregation (%, Mean ± SEM) (%)

compound="COc1cc(C(=O)N2CCc3sccc3C2)ccc1O [Example 12]" uom=% valueobserved=99.5
compound="COc1ccc(NC(=O)c2ccc(O)c(OC)c2)c([N+](=O)[O-])c1 [Example 15]" uom=% valueobserved=95.5
compound="O=C(c1cc(O)ccc1O)N1CCc2sccc2C1 [Example 20]" uom=% valueobserved=84.0
compound="CCc1occc(=O)c1OC(=O)c1ccc(O)c(OC)c1 [Example 13]" uom=% valueobserved=92.5
compound="O=C(c1cc(O)ccc1O)N1CCC(c2noc3ccc(F)cc23)CC1 [Example 23]" uom=% valueobserved=96.0
compound="COc1cc(C(=O)Oc2c(C)occc2=O)ccc1O [Example 14]" uom=% valueobserved=81.3
compound="O=C(c1ccc(O)c(O)c1)N1CCc2sccc2C1 [Example 1]" uom=% valueobserved=88.0

Where do these numbers come from? They come from patent US10730886B2.
